tested on: 2Sp-muMax20 (muMax20 with two 2,6-bis(methyl)pyridine Cys staples); assay: PBM 8-mer E-score (E-score (rank enrichment, -0.5 to 0.5)); higher = stronger preferential binding
Whole data set: some 33,000 sequences, median “E-score (rank enrichment, -0.5 to 0.5)” near -0.0043, cut for the highest 2% near 0.24. This is one part of a sample in which the highest values are shown more often than they occur.
QUANTITY KIND: PBM 8-mer E-score
Numbers only.

# SEQ, SYSTEM UNDER TEST, QUANTITY KIND, VALUE MEASURED
rows = [
    ("TCGGAAGA", "2Sp-muMax20 (muMax20 with two 2,6-bis(methyl)pyridine Cys staples)", "PBM 8-mer E-score", -0.155),
]

Hi team, please reply with PBM 8-mer E-score for each item in this list.
1. AATGATAG
2. ATATGTGA
3. AATGATAT
4. GAGGGTCC

Found:
1: 0.176; 2: 0.311; 3: 0.241; 4: -0.156

====

tested on: 2Sp-muMax20 (muMax20 with two 2,6-bis(methyl)pyridine Cys staples); test: PBM 8-mer E-score (E-score (rank enrichment, -0.5 to 0.5)); higher = stronger preferential binding
Whole data set: some 33,000 sequences, median “E-score (rank enrichment, -0.5 to 0.5)” near -0.0043, cut for the highest 2% near 0.24. Shown is part of a subset that was picked to be rich in the highest values.
Kindly return label 1 if reported PBM 8-mer E-score is no lower than 0.1; return label 0 if it is lower.

Example entries begin here.
# SEQ, SYSTEM UNDER TEST, CATEGORY
records = [
    ("CTCGTTAC", "2Sp-muMax20 (muMax20 with two 2,6-bis(methyl)pyridine Cys staples)", "label 0"),
    ("ATGATAGA", "2Sp-muMax20 (muMax20 with two 2,6-bis(methyl)pyridine Cys staples)", "label 0"),
    ("CTGCATTA", "2Sp-muMax20 (muMax20 with two 2,6-bis(methyl)pyridine Cys staples)", "label 1"),
    ("ATAAATTA", "2Sp-muMax20 (muMax20 with two 2,6-bis(methyl)pyridine Cys staples)", "label 1"),
    ("ATTATAAG", "2Sp-muMax20 (muMax20 with two 2,6-bis(methyl)pyridine Cys staples)", "label 1"),
]

Lookup: Is reported PBM 8-mer E-score greater than or equal to 0.1 here: ATGATAGG
Found: label 0

Lookup: Now give it for TAATATTA too.
Found: label 1

Lookup: Now give it for GTTATAAC too.
Found: label 1

Lookup: Now give it for ACGCATGA too.
Found: label 1

Lookup: Now give it for TAATCCAA too.
Found: label 1

Lookup: Now give it for ACAGGACC too.
Found: label 0

Lookup: Now give it for CTGCAATA too.
Found: label 0

====

test system: 2Sp-muMax20 (muMax20 with two 2,6-bis(methyl)pyridine Cys staples); test: PBM 8-mer E-score (E-score (rank enrichment, -0.5 to 0.5)); higher = stronger preferential binding
Over roughly 33,000 sequences, “E-score (rank enrichment, -0.5 to 0.5)” has its median near -0.0043; the highest 2% begin near 0.24. Many of the other results were omitted from the sample, so the highest values are more common in it than they were.
Provide the recorded PBM 8-mer E-score for the entries that follow.
Give bare numbers.

Hi team, please reply with PBM 8-mer E-score for each item in this list.
1. ACCAATAC
2. TAACCTCA
3. CGCGCGCC

Found:
0.139
-0.00886
0.243

Lookup: Return PBM 8-mer E-score measured with 2Sp-muMax20 (muMax20 with two 2,6-bis(methyl)pyridine Cys staples) given this sequence: CACGCGCA
Found: 0.0178

====

tested on: 2Sp-muMax20 (muMax20 with two 2,6-bis(methyl)pyridine Cys staples); test: PBM 8-mer E-score (E-score (rank enrichment, -0.5 to 0.5)); higher = stronger preferential binding
In all, about 33,000 sequences were measured (“E-score (rank enrichment, -0.5 to 0.5)”: median about -0.0043, highest 2% from about 0.24 on). Shown is part of a subset that was picked to be rich in the highest values.
Kindly return Met if reported PBM 8-mer E-score is no lower than 0.1; return Not met if it is lower.

# SEQ, SYSTEM UNDER TEST, CATEGORY
data = [
    ("AATCAGCT", "2Sp-muMax20 (muMax20 with two 2,6-bis(methyl)pyridine Cys staples)", "Met"),
]

Lookup: Is reported PBM 8-mer E-score greater than or equal to 0.1 here: CTGGCGGC
Found: Not met

====

test system: 2Sp-muMax20 (muMax20 with two 2,6-bis(methyl)pyridine Cys staples); assay: PBM 8-mer E-score (E-score (rank enrichment, -0.5 to 0.5)); higher = stronger preferential binding
In all, about 33,000 sequences were measured (“E-score (rank enrichment, -0.5 to 0.5)”: median about -0.0043, highest 2% from about 0.24 on). The entries come from a sample that favours the highest values as a whole.
Provide the recorded PBM 8-mer E-score for the entries that follow.
One number for each entry.

Study these solved cases before continuing.
# SEQ, SYSTEM UNDER TEST, PBM 8-mer E-score
records = [
    ("CAATATGA", "2Sp-muMax20 (muMax20 with two 2,6-bis(methyl)pyridine Cys staples)", 0.189),
    ("CTGTCTAC", "2Sp-muMax20 (muMax20 with two 2,6-bis(methyl)pyridine Cys staples)", -0.085),
]

Hi team, please reply with PBM 8-mer E-score for each item in this list.
1. CAGCGAAA
2. CCATATGG
3. CCAGCCTC
4. CAATATGG
5. ACGCCTTC
6. AATATGGT
7. TATGTACA

Found:
1: -0.113; 2: 0.295; 3: -0.148; 4: 0.244; 5: -0.0956; 6: 0.0878; 7: 0.25

Hi team, please reply with PBM 8-mer E-score for each item in this list.
1. AATATGGA
2. TACAGGTA
3. ACTAAGCT

Found:
1: 0.104; 2: 0.0603; 3: -0.0864

====

system: 2Sp-muMax20 (muMax20 with two 2,6-bis(methyl)pyridine Cys staples); test: PBM 8-mer E-score (E-score (rank enrichment, -0.5 to 0.5)); higher = stronger preferential binding
In all, about 33,000 sequences were measured (“E-score (rank enrichment, -0.5 to 0.5)”: median about -0.0043, highest 2% from about 0.24 on). For the sample, the highest values were picked, then their nearest neighbours and some sequences at random.
Kindly return true (1) if reported PBM 8-mer E-score is no lower than -0.04; return false (0) if it is lower.

Example entries begin here.
# SEQ, SYSTEM UNDER TEST, CATEGORY
records = [
    ("ATGATGTC", "2Sp-muMax20 (muMax20 with two 2,6-bis(methyl)pyridine Cys staples)", "true (1)"),
    ("AACTAGCT", "2Sp-muMax20 (muMax20 with two 2,6-bis(methyl)pyridine Cys staples)", "false (0)"),
    ("AACACGTC", "2Sp-muMax20 (muMax20 with two 2,6-bis(methyl)pyridine Cys staples)", "true (1)"),
]

Please turn your attention to the following entry.
Lookup: Is reported PBM 8-mer E-score greater than or equal to -0.04 here: GGTTGGCA
Found: false (0)

====

test system: 2Sp-muMax20 (muMax20 with two 2,6-bis(methyl)pyridine Cys staples); test: PBM 8-mer E-score (E-score (rank enrichment, -0.5 to 0.5)); higher = stronger preferential binding
Whole data set: some 33,000 sequences, median “E-score (rank enrichment, -0.5 to 0.5)” near -0.0043, cut for the highest 2% near 0.24. What follows is part of a selection rich in the highest values, with near analogues and random picks from the rest.
QUANTITY KIND: PBM 8-mer E-score
Answers are plain numbers.

Study these solved cases before continuing.
# SEQ, PBM 8-mer E-score
rows = [
    ("AATATACT", 0.0855),
    ("ACATATGC", 0.0823),
]

Hi team, please reply with PBM 8-mer E-score for each item in this list.
1. ACATCACT
2. TATATACA
3. ACTATACA
4. GACGGAAA
5. CACGTGAG
6. GTCTTTGA

Found:
0.176
0.11
0.236
0.0756
0.255
-0.121

Hi team, please reply with PBM 8-mer E-score for each item in this list.
1. ACCACGGT
2. AAACGGCC

Found:
1. -0.234
2. 0.284

====

system: 2Sp-muMax20 (muMax20 with two 2,6-bis(methyl)pyridine Cys staples); test: PBM 8-mer E-score (E-score (rank enrichment, -0.5 to 0.5)); higher = stronger preferential binding
Whole data set: some 33,000 sequences, median “E-score (rank enrichment, -0.5 to 0.5)” near -0.0043, cut for the highest 2% near 0.24. This is one part of a sample in which the highest values are shown more often than they occur.
Provide the recorded PBM 8-mer E-score for the entries that follow.
Answers are plain numbers.

Study these solved cases before continuing.
# SEQ, SYSTEM UNDER TEST, VALUE MEASURED
measured = [
    ("ACCGCAAA", "2Sp-muMax20 (muMax20 with two 2,6-bis(methyl)pyridine Cys staples)", -0.161),
    ("ACACCGCT", "2Sp-muMax20 (muMax20 with two 2,6-bis(methyl)pyridine Cys staples)", -0.116),
]

Hi team, please reply with PBM 8-mer E-score for each item in this list.
1. CTATTGCC
2. AATTCTTC
3. AAAGATAA

Found:
1. -0.045
2. 0.0644
3. 0.218
